- assay-remarks: Plasma and brain concentrations after MES testing (UHPLC-ESI-MS/MS)
- assay-context: CF-1, mouse, in vivo, po, 1 mg/kg, Concentration Plasma, Compound A 1 mg/kg PO, 0.5 hr
measurement-kind: concentration at 0.5 h (ng/mL)

>  <molecule>
Cc1cc(N2CCc3cc(F)ccc3C2)cc(C)c1NC(=O)CC(C)(C)C [Compound A]

>  <unit>
ng/mL

>  <val>
48.9

$$$$

----------
- assay-remarks: Plasma and brain concentrations after MES testing (UHPLC-ESI-MS/MS);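 note: brain and plasma were sampled from mice right after the efficacy test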
- assay-context: CF-1, mouse, in vivo, po, 4 mg/kg, Concentration Brain, Compound A 4 mg/kg PO single dose, tissue collection 2 hr

>  <compound>
Cc1cc(N2CCc3cc(F)ccc3C2)cc(C)c1NC(=O)CC(C)(C)C

>  <concentration at 2 h>
360 nM

$$$$
